# target-system: Bifunctional protein GlmU (Mycobacterium tuberculosis (strain ATCC 25618 / H37Rv))
# experiment-summary: inhibition of mycobacterial GlmU enzyme – biochemical, glucosamine-1-phosphate acetyltransferase (AID 1376);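 also: 0% = complete reaction with vehicle and 100% = reaction without substrate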
# protocol-conditions: M. tuberculosis GlmU acetyltransferase enzyme assay; hits give high values;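 tested at 30 µM in the primary screen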
About 530 (0.24%) of roughly 220,000 compounds were called active. Shown is part of a subset that was picked to be rich in actives. Results with a measured potency or affinity are listed apart.
assay-metric: inhibition (%)
Give the value, in units of %, as a plain number.

Known inhibition results, listed for orientation:
INSERT INTO results (compound, quantitative_result) VALUES
  ('N#CC1=C(N)Oc2c(oc(CO)cc2=O)C1c1ccsc1 (configuration not stated)', -2.69),
  ('Cc1ccc2nc3c(nc2c1C)C(O)=C3O', 2.69),
  ('Cc1cc(C)n(-c2ccc(Oc3ccccc3)c(S(=O)(=O)O)c2)n1', 12.6),
  ('COc1ccc(-n2c3c(cc(C(=O)N4CCC(C)CC4)c2=O)C(=O)CC(C)(C)C3)cc1', 0.29),
  ('CCOC(=O)C1=C(C)Nc2nc3ccccc3n2C1c1ccc(O)cc1 (configuration not stated)', 6.95);

**Q:** Entry O=C(c1ccc2c(c1)OCCO2)N1CCN(c2ccc([N+](=O)[O-])cc2)CC1 has what inhibition?
**A:** -4.31

**Q:** Entry C#CCOc1ccc2c(C)cc(=O)oc2c1 has what inhibition?
**A:** 13.2
